Each entry below lists one item and its recorded pKd value.
Target: T1, PUF4 RNA-binding domain (Saccharomyces cerevisiae, UniProt P25339 537-888)
T1 sequence: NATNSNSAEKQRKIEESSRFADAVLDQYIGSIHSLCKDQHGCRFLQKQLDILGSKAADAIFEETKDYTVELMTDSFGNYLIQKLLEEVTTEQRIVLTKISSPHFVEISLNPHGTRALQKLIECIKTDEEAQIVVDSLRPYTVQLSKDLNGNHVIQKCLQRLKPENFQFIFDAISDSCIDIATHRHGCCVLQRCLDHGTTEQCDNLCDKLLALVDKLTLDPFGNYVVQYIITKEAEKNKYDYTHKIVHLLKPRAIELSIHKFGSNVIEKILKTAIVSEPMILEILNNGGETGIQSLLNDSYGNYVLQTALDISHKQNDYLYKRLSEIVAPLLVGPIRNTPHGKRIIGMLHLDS
Experiment: Mg; RNA-MaP; 20 mM Na-HEPES pH 7.4, 30 mM KOAc, 0.75 mM MgCl2, 0.1% Tween-20, 5% glycerol, 0.1 mg/mL BSA, 2 mM DTT; 25 C; 0.0125-409.6 nM protein
Conditions: tags: N-His6-TEV cleaved; C-SNAP kept, Cy3B-labelled; label: tethered on chip by stalled RNA polymerase
pKd: −log10 of the molar value.

Example entries begin here.
{"columns": ["BINDER", "MEASURED_VALUE"],
 "data": [
  ["UCUCUUUAACACUUAUUACGUCUCUU (ssRNA) [Id_ii_S1_P5E.4_K5.3_C5.2_[C-2T]_[T-1A]_H5.3_A5.1_F5.1_T5.2_[T11C]_[A12G]]", "< 5.64"],
  ["UCUCUUUGUAGUUCGUCUCUU (ssRNA) [Ic_S1_P4E.1_K4.1_C4.1_H4.1_A4.1_[T5G]_[A6T]_F4.1_[T8C]_[A9G]_T4.1]", "< 5.64"]
]}

Please examine the following record next.
### Prompt Given ACAAACUGACUUAUUAACAAAC (ssRNA) [Ib_S3_P5E.1_K5.1_C5.1_H5.1_[T3A]_[A4C]_A5.1_F5.1_T5.1] , state its recorded pKd.
### Response < 5.64
